# System: sedge, umbrella (small-flower umbrella sedge, Cyperus difformis)
# protocol-description: Test B flooded paddy test
# Format: in vivo
# settings: 250 g ai/ha, Flood; visual rating on scale of 0 to 100 where 0 is no effect and 100 is complete control; 13 to 15 d after treatment
# key: entry, value: Plant response rating, Sedge, Umbrella

Reference set, count: 4
CCOc1ccc2oc(CC)c(-c3c(O)c(C)nn(C)c3=O)c2c1 :: 30
Cc1nn(C)c(=O)c(-c2cccc3ccc(Br)cc23)c1O :: 0
Cc1n[nH]c(=O)c(-c2cccc3ccccc23)c1OCC(F)F :: 0
Cc1ccc2ccccc2c1-c1c(OC(=O)OC(C)C)c(C)nn(C)c1=O :: 0

# next compound below
Which Plant response rating, Sedge, Umbrella is listed for Cc1nn(C)c(=O)c(-c2ccc(Cl)c3ccccc23)c1O ?
0

###

# Test system: foxtail, giant (giant foxtail, Setaria faberii)
# protocol-description: Test A greenhouse herbicide test, pre- and postemergence
# Assay type: in vivo
# settings: Postemergence, 125 g ai/ha; 0 to 100 scale where 0 is no effect and 100 is complete control
metric-name: Plant response rating, Foxtail, Giant
Please reply with the number alone, leaving off any unit.

Cn1ncc(O)c(-c2cccc3ccccc23)c1=O :: 0
CC(=O)Oc1cnn(C)c(=O)c1-c1c(C)sc2ccccc12 :: 0
CCC(=O)Oc1c(C)nn(C)c(=O)c1-c1c(C)ccc2ccccc12 :: 20
CCCC(=O)Oc1c(C)nn(C)c(=O)c1-c1c(C)sc2ccc(C)cc12 :: 70
Cc1nn(C)c(=O)c(-c2ccc(Br)c3ccccc23)c1O :: 50

What value of Plant response rating, Foxtail, Giant has been recorded for this entry: COc1nn(C)c(=O)c(-c2c(C(F)F)ccc3ccccc23)c1O
50

###

# Test system: lambsquarters (Chenopodium album)
# protocol-description: Test C greenhouse herbicide test, pre- and postemergence
# Assay type: in vivo
# settings: Postemergence, 31 g ai/ha; scale 0 to 100 (0 no effect, 100 complete control)
Plant response rating, Lambsquarters overview
Please give the numeric answer without any surrounding text.

Would you please look over these solved cases?
CCC(=O)Oc1c(C)nn(C)c(=O)c1-c1ccc(Br)c2ccccc12 :: 100
COC(=O)Oc1c(C)nn(C)c(=O)c1-c1ccc(Br)c2ccccc12 :: 98
Cc1nn(C)c(=O)c(-c2ccc(Cl)c3ccccc23)c1O :: 98

What value of Plant response rating, Lambsquarters has been reported for the following compound? CC(=O)Oc1c(C)nn(C)c(=O)c1-c1c(C)sc2ccc(C(F)(F)F)cc12
90

Please give the measured Plant response rating, Lambsquarters for this compound: CCCC(=O)Oc1c(C)nn(C)c(=O)c1-c1c(C)sc2ccc(C)cc12
85

###

# System: barley, spring (spring barley, Hordeum vulgare)
# protocol-description: Test D controlled growth environment herbicide test, pre- and postemergence
# Format: in vivo
# settings: Postemergence, 250 g ai/ha; scale 0 to 100 (0 no effect, 100 complete control)
metric-name: Plant response rating, Barley, Spring
Could you respond with only the numeric value?

Some compounds with known Plant response rating, Barley, Spring results, for comparison:
Cc1cc2ccccc2c(-c2c(O)c(C)nn(C)c2=O)c1C [Compound 34] :: 5
Cc1nn(C)c(=O)c(-c2c(C)sc3ccc(Br)cc23)c1O [Compound 22] :: 15
Cn1nc(Br)c(O)c(-c2cccc3ccccc23)c1=O [Compound 20] :: 0

Shifting focus to the compound that follows.
So what's the measured Plant response rating, Barley, Spring for this one? Cc1ccc2ccccc2c1-c1c(OC(=O)OC(C)C)c(C)nn(C)c1=O [Compound 72]
15

###

# Tested on: field poppy (Papaver rhoeas)
# protocol-description: Test D controlled growth environment herbicide test, pre- and postemergence
# Format: in vivo
# settings: postemergence, 62 g ai/ha; scale 0 to 100, 0 no effect, 100 complete control
Reported Plant response rating, Field Poppy is given for each of the following compounds.
Answer as a number with no unit attached.

Cc1nn(C)c(=O)c(-c2c(C)sc3ccc(Br)cc23)c1O [Compound 22] :: 85

Recorded Plant response rating, Field Poppy of Cc1nn(C)c(=O)c(-c2ccc(Br)c3ccccc23)c1O [Compound 75] , please.
100

# query: Plant response rating, Field Poppy of entry Cc1ccc2sc(C)c(-c3c(OC(=O)OC(C)C)c(C)nn(C)c3=O)c2c1 [Compound 66]
85

Which measured Plant response rating, Field Poppy value corresponds to Cc1cc(C)c2sc(C)c(-c3c(O)c(C)nn(C)c3=O)c2c1 [Compound 2] ?
95

I am curious: what Plant response rating, Field Poppy value has been reported for CCCC(=O)Oc1c(C)nn(C)c(=O)c1-c1c(C)sc2ccc(C)cc12 [Compound 105] ?
75

###

# Test system: waterhemp (common waterhemp, Amaranthus rudis)
# protocol-description: Test C greenhouse herbicide test, pre- and postemergence
# Type: in vivo
# settings: Postemergence, 125 g ai/ha; scale 0 to 100, 0 is no effect, 100 is complete control
Simple rule here: Plant response rating, Waterhemp less than 80 is Yes, otherwise No.

// known answers, use as guide
CC(=O)Oc1c(C)nn(C)c(=O)c1-c1c(C)sc2ccc(Cl)cc12 :: No
CCc1oc2ccc(C)cc2c1-c1c(O)c(C)nn(C)c1=O :: Yes
CCCC(=O)Oc1c(C)nn(C)c(=O)c1-c1c(CC)sc2ccc(C)cc12 :: No

Strictly below 80 in Plant response rating, Waterhemp? Cc1ccc2ccccc2c1-c1c(OC(=O)OC(C)C)c(C)nn(C)c1=O
No

Determine whether this molecule shows Plant response rating, Waterhemp lower than 80 (ties excluded): CCc1sc2ccc(C)cc2c1-c1c(O)c(C)nn(C)c1=O
No

Consider Cn1nc(Br)c(O)c(-c2cccc3ccccc23)c1=O . Does its Plant response rating, Waterhemp lie strictly below 80?
Yes

###

# Test system: Russian thistle (Salsola kali)
# protocol-description: Test D controlled growth environment herbicide test, pre- and postemergence
# Assay type: in vivo
# settings: Preemergence, 250 g ai/ha; scale 0 to 100, 0 no effect, 100 complete control
compounds and their reported Plant response rating, Russian Thistle
// print number alone

Cc1nn(C)c(=O)c(-c2c(C)sc3c(C)cc(Cl)cc23)c1O :: 25

What value of Plant response rating, Russian Thistle has been recorded for this entry: Cc1nn(C)c(=O)c(-c2cccc3ccc(Br)cc23)c1O
15

// lookup Plant response rating, Russian Thistle for COC(=O)Oc1c(C)nn(C)c(=O)c1-c1c(C)sc2ccc(C)cc12
100

Bench note: what Plant response rating, Russian Thistle did Cc1nn(C)c(=O)c(-c2ccc(F)c3ccccc23)c1O show?
70

Name the reported Plant response rating, Russian Thistle value associated with the compound Cn1nc(Br)c(O)c(-c2cccc3ccccc23)c1=O
70

Entry under review: CC(=O)Oc1c(C)nn(C)c(=O)c1-c1c(C)sc2ccc(Cl)cc12 . Reported Plant response rating, Russian Thistle?
100

Which Plant response rating, Russian Thistle reading was recorded for the compound Cc1ccc2ccccc2c1-c1c(OC(=O)OC(C)C)c(C)nn(C)c1=O ?
25

###

# maps each entry to its Plant response rating, Ragweed
# Test system: ragweed (common ragweed, Ambrosia elatior)
# protocol-description: Test C greenhouse herbicide test, pre- and postemergence
# Type: in vivo
# settings: Postemergence, 125 g ai/ha; scale 0 to 100, 0 is no effect, 100 is complete control

Known results for compounds:
CCCC(=O)Oc1c(C)nn(C)c(=O)c1-c1c(C)sc2ccc(C)cc12 :: 98
COC(=O)Oc1cnn(C)c(=O)c1-c1c(C)sc2ccccc12 :: 25

Value wanted: Plant response rating, Ragweed (ragweed (common ragweed, Ambrosia elatior)) of entry CCCC(=O)Oc1c(C)nn(C)c(=O)c1-c1c(CC)sc2ccc(C)cc12
98

###

Overview of reported Plant response rating, Lambsquarters across a group of compounds:
# System: lambsquarters (Chenopodium album)
# protocol-description: Test D controlled growth environment herbicide test, pre- and postemergence
# Format: in vivo
# settings: Postemergence, 125 g ai/ha; visual rating on scale 0 (no effect) to 100 (complete control), 14 to 21 d
Please give only the number in your answer, with no unit.

Here is how some compounds turned out for Plant response rating, Lambsquarters.
Cc1cc2ccccc2c(-c2c(O)c(C)nn(C)c2=O)c1C [Compound 34] :: 100
Cc1nn(C)c(=O)c(-c2cccc3ccc(Br)cc23)c1O [Compound 126] :: 100
Cc1ccc2ccccc2c1-c1c(OC(=O)OC(C)C)c(C)nn(C)c1=O [Compound 72] :: 90
CCc1sc2ccc(C)cc2c1-c1c(O)c(C)nn(C)c1=O [Compound 47] :: 70

Now for the compound whose Plant response rating, Lambsquarters we want.
Given the entry Cc1cc(C)c2sc(C)c(-c3c(O)c(C)nn(C)c3=O)c2c1 [Compound 2] , report its measured Plant response rating, Lambsquarters.
95

###

# System: ragweed (common ragweed, Ambrosia elatior)
# protocol-description: Test E greenhouse herbicide test, pre- and postemergence
# Format: in vivo
# settings: 62 g ai/ha, Preemergence; scale 0 to 100 (0 no effect, 100 complete control)
Plant response rating, Ragweed by entry:
Provide a numeric answer; units are not to be included.

Worked cases, answers included:
Cc1nn(C)c(=O)c(-c2ccc(Br)c3ccccc23)c1O :: 65
CCc1sc2c(C)cc(C)cc2c1-c1c(O)c(C)nn(C)c1=O :: 100
Cc1cc(C)c2sc(C)c(-c3c(O)c(C)nn(C)c3=O)c2c1 :: 75

# input for lookup
Item Cc1nn(C)c(=O)c(-c2ccc(F)c3ccccc23)c1O with ragweed (common ragweed, Ambrosia elatior) - Plant response rating, Ragweed?
70
